Answer each item with its documented inhibition.
# Tested on: transactivating tegument protein VP16 (Human herpesvirus 1)
# assay: VP16 transactivation reporter inhibitors, counter-screen for SRC2 inhibitor project, cell-based, luminescence, single concentration (AID 652007)
# conditions.used: cell-based VP16 transactivation luciferase reporter, at 8.9 µM, active compounds read high
Numbers only, in %.

molecule	inhibition (%)
COc1ccc(NS(=O)(=O)c2ccc3c(c2)OCCO3)cc1OC	10.1
COc1ccccc1NS(=O)(=O)c1ccc(C)c(C(=O)NC2CCN(Cc3ccccc3)CC2)c1	17.2
O=C(NCc1cccnc1)/C(=C/c1ccc(-c2ccc(Cl)cc2)o1)S(=O)(=O)c1ccccc1	70.2

For the 3 molecules below, give their inhibition values.
1. CC(=NCc1ccco1)c1c(C)[nH]n(-c2nc3ccccc3s2)c1=O
2. CC(=O)Nc1nc(-c2ccc3c(c2)CCN3C(=O)C2CC2)c(C)s1
3. Cc1cc(C(=O)NNS(=O)(=O)c2cc(C(=O)O)ccc2Cl)c(C)n1-c1ccccc1

## Result
1. -24
2. 13.2
3. 2.27

* * *

# assay: growth loss of phage-infected RecBCD+ E. coli, confirmation, RecBCD inhibitor project, absorbance, E. coli V66, T4 gene 2 phage (AID 651982)
# conditions.used: E. coli V66 + T4 2- phage, growth OD; at 11.9 µM
The list shows a part of the results. The source made the active and inactive calls.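 The calls were made as follows: active = mean inhibition over triplicates exceeding the hit threshold derived in the original primary screen (cut at about 11% in these data); inactive = the rest.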
Pick one and only one: active, inactive

A selection of reference data follows.
molecule	category.label
O=C(NN=Cc1ccccc1O)NN=Cc1ccccc1O	inactive
O=C1c2ccccc2C2=Nc3ccccc3SC(c3ccccc3F)C12 (stereo unspecified)	inactive

## Task For `Cc1cccc(NC(=O)Cn2cc(C(=O)c3ccco3)c3ccccc32)c1` , which call appears in the assay record?
## Result inactive

## Task // outcome(item) with item = S=C(NCC1COc2ccccc2O1)Nc1ccc(Br)cc1 (stereo unspecified)
## Result inactive

## Task Assay outcome for `Cc1cccc(NC(=O)c2ccc([N+](=O)[O-])o2)c1` : what was it?
## Result inactive

## Task Recorded call for `O=C(CC(O)(C(F)(F)F)C(F)(F)F)Nc1ccc(Cl)c(Cl)c1` ?
## Result active

## Task Which outcome was assigned to CC(=O)NC(c1cccs1)c1cc(Br)c2cccnc2c1O (stereo unspecified) in this test?
## Result inactive

## Task Hi, do you know how `O=C(CSc1ccc(-c2ccccn2)nn1)Nc1ccccc1` came out in this test?
## Result inactive

## Task So what was the verdict on `Cc1ccc(/C=N/NC(=O)C2=NNC(c3ccccc3)(c3ccccc3)C2)c(O)c1` in this test?
## Result inactive

## Task For this molecule, state the assay outcome: `CC(=O)c1c(C)n([O-])c2ccccc2[n+]1=O`
## Result active

* * *

# assay: cytotoxicity in HEK cells, cytotoxicity control for IDE inhibitor project, cell-based, luminescence (AID 449730);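 also: 0% = vehicle wells and 100% = reference cytotoxic drug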
# conditions.used: HEK293 cytotoxicity, ATP luminescence; at 5.59 µM
The other results are listed elsewhere or left out. Activity calls are given as the source filed them. Cut-off read from the data, not from the text of the source: active = inhibition above about 22%; inactive = the rest.
Hi there, use one of these labels in your reply, thanks! y (active), n (inactive)

A selection of reference data follows.
molecule	category.label
O=C(/C=C(O)/C=C/c1ccc(O)cc1)/C=C/c1ccc(O)cc1	n
CC(=O)c1cc(NC(=O)c2ccccc2)c(=O)oc1/C=C/N(C)C	n
CCCCc1cc(=O)oc2c(C)c(OCC(=O)N3CCC(C(N)=O)CC3)ccc12	n

Now examine the next entry.
## Task What classification did `O=C(/C=C/c1ccc(N2CCOCC2)cc1)c1ccccc1` end up with in this test?
## Result n

* * *

# study.system: Nuclear receptor coactivator 3 (Homo sapiens)
# assay: SRC3 coactivator transcriptional activity inhibitors, confirmation, cell-based, luminescence, quadruplicate (AID 588792);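 also: 0% = DMSO treated cells and 100% = gossypol at 36 µM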
# conditions.used: HEK293 GAL4-SRC3 luciferase reporter, at 3.6 µM
The source made the active and inactive calls.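 How the source made its calls: active means mean inhibition over 43.08%, the solvent-only control mean plus 3 SD; inactive means the rest.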
Hi there, use one of these labels in your reply, thanks! 1 = active, 0 = inactive

Solved entries (count: 6):
compound	category.label
COc1ccc(-c2cn(-c3ccccc3)c3[n+]2CCS3)cc1	0
O=C(Nc1ccc2c(c1)OCCO2)C(c1cc2ccccc2o1)N1CCN(c2ccc(C(F)(F)F)cn2)CC1 (configuration not stated)	0
Nc1ncnc(N2CCc3ccccc32)c1[N+](=O)[O-]	1
C=C1C(=O)O[C@H]2C[C@H]1[C@@H](OC(C)=O)C/C(C)=C/CC/C(C)=C\CC[C@]2(C)O	1
CC(=O)c1cccc(NC(=O)c2cc(S(=O)(=O)N3CCOCC3)cs2)c1	0
O=C(N/N=C/c1sc(N2CCOCC2)nc1-c1ccccc1)c1cccc(S(=O)(=O)N2CCCC2)c1	1

## Task Could you please tell me the result logged for `O=C(O)c1ccc(N/N=C/c2ccc3c(c2)OCO3)cc1` in this assay?
## Result 0

## Task Any idea what this test logged for `Cc1cccc(Nc2ncnc3ccc(Br)cc23)c1` ?
## Result 0

## Task Recorded test call requested for `COC(=O)Cc1ccc(NC(=O)c2ccc(C(C)(C)C)cc2)cc1`
## Result 1

## Task Assay outcome for `O=C(Nc1ccc(Oc2cccnc2)nc1)c1ccc(C(F)(F)F)cc1` : what was it?
## Result 0

* * *

# Test system: transactivating tegument protein VP16 (Human herpesvirus 1), Gal4-VP16 luciferase reporter
# assay: VP16 transactivation inhibitors, counter-screen for SRC3 inhibitor project, cell-based, luminescence, high throughput (AID 588794)
# conditions.used: mammalian cells, VP16-driven luciferase reporter luminescence; at 3.6 µM
The source made the active and inactive calls. Rule as the data show it: active = inhibition above about 30%; inactive = the rest.
Outcome field: choose from active, inactive

compound	category.label
COc1ccc(-c2c[n+](CC(=O)OC3CC(C)CCC3C(C)C)c3n2CCC3)cc1 (stereo unspecified)	active
CCOc1ccc(Nc2cc(C)nc(-n3nc(C)cc3C)n2)cc1	inactive
COc1cccc(/C=N/Nc2cc(-n3nc(C)cc3-c3ccccc3)ncn2)c1O	inactive

## Task Check the results log: what was the call for O=C(Nc1ccc2c(c1)OCCO2)C(c1ccnc2ccccc12)N1CCN(c2ccc(C(F)(F)F)cn2)CC1 (stereo unspecified) ?
## Result inactive

## Task What is the recorded call for this compound in the test? `Cn1cc(C(=O)N/N=C/c2c(O)ccc3ccccc23)ccc1=O`
## Result active

## Task Given `CC(C)(C)C(=O)Nc1ccc(N=Nc2ccccc2)cc1` , state the outcome it received in this test.
## Result inactive

* * *

# study.system: Nuclear receptor coactivator 1 (Homo sapiens) (UniProt Q15788)
# Sequence (Q15788 whole entry, looked up): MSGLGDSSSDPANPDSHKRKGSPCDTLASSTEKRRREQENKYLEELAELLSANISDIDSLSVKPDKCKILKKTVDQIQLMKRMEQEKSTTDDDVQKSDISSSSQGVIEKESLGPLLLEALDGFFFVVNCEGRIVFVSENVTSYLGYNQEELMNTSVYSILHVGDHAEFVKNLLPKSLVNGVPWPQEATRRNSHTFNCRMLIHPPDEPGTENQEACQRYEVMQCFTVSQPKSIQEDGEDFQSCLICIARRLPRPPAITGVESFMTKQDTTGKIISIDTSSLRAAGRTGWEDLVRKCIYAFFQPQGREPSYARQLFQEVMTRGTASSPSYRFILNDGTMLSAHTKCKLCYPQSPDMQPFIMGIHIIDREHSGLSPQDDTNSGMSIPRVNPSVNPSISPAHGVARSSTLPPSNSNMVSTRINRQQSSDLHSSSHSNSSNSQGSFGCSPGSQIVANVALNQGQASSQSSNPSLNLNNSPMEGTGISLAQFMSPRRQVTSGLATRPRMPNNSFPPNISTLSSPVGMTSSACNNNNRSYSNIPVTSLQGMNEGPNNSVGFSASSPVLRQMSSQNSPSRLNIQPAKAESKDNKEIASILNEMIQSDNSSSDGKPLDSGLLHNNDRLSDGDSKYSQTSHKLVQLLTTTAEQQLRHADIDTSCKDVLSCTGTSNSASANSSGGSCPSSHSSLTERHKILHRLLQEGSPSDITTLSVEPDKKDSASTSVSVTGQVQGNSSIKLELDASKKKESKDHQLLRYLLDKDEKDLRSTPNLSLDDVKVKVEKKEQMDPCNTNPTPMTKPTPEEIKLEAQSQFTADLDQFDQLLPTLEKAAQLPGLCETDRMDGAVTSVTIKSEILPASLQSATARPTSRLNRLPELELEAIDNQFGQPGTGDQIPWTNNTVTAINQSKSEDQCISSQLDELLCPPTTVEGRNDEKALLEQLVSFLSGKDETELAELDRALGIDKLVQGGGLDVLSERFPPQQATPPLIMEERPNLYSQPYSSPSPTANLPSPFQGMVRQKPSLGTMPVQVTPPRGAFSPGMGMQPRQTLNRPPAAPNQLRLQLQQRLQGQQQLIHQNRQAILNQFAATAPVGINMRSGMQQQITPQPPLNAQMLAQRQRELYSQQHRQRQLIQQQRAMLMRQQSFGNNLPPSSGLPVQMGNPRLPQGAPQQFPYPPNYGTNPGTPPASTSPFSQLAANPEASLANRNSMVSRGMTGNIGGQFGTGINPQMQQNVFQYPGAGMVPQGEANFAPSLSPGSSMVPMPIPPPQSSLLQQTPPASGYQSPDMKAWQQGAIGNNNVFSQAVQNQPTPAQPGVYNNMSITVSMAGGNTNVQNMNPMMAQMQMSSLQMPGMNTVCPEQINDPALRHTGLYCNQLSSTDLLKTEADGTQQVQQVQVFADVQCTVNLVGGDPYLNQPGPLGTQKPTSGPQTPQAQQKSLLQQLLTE
# assay: SRC1 coactivator transcriptional activity inhibitors, confirmation, cell-based, luminescence, quadruplicate (AID 588820);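 also: 0% = DMSO wells and 100% = gossypol 36 µM treated wells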
# conditions.used: HEK293 GAL4-SRC1 luciferase reporter, at 3.6 µM, active compounds read high
Could you please report measured inhibition for the items listed next?
One number for each entry, in %.

Example cases with answers are listed next.
compound	inhibition [%]
O=C(Nc1ccc(N2CCN(C(=O)c3ccccc3)CC2)cc1)c1ccc2c(c1)OCO2	37.4
CC(=O)c1c(C)n(-c2ccc(C)cc2)c2ccc(O)cc12	35
O=C(CCCN1C(=O)/C(=C/c2ccccc2Cl)SC1=S)NNC(=O)c1ccc(Cl)cc1Cl	37.1

Please state, for each entry, its recorded inhibition.
1. CN(C(=O)c1cccc(NC(=O)Cc2ccc(NC(=O)C3CCCN(C(=O)CCc4ccccc4)C3)cc2)c1)C1CCCC1 (centres undefined)
2. CC(=O)NS(=O)(=O)c1ccc(NC(=O)/C=C/c2cn(-c3ccccc3)nc2-c2ccccc2)cc1
3. COc1ccc(-n2c(C)c(C(C)=O)c3cc(O)ccc32)cc1
4. Cc1c(C(=O)N2CCN(Cc3ccc4c(c3)OCO4)CC2)sc2ncnc(N3CCN(c4ccccc4F)CC3)c12
5. N#Cc1ccc(Oc2ccc(C(F)(F)F)cc2NC(=O)c2ccc(F)cc2)cc1
6. O=C(CCCN1C(=O)S/C(=C\c2ccccc2)C1=O)NNC(=O)c1ccccc1O

## Result
-3.52
1.36
64.1
-22.2
6.71
54.6

* * *

# study.system: Nuclear receptor coactivator 1 (Homo sapiens) (UniProt Q15788)
# assay: SRC1 coactivator transcriptional activity inhibitors, confirmation, cell-based, luminescence, quadruplicate (AID 588820);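 also: 0% = DMSO wells and 100% = gossypol 36 µM treated wells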
# conditions.used: HEK293 GAL4-SRC1 luciferase reporter, at 3.6 µM, active compounds read high
Label condition met for high-side inhibition (at or above 60%) and condition not met for low-side inhibition (below it).

Worked examples, 3 compounds total:
compound	study.system	category.label
CCCCC(=O)NC(c1ccc(N(CC)CC)cc1)c1ccc2cccnc2c1O (stereo not given)	Nuclear receptor coactivator 1 (Homo sapiens) (UniProt Q15788)	condition met
O=C(/C=C/c1ccc(Cl)cc1)NC(=S)Nc1ccc(NC(=O)c2ccco2)cc1	Nuclear receptor coactivator 1 (Homo sapiens) (UniProt Q15788)	condition not met
O=C(Nc1ccc2c(c1)OCCO2)C(c1ccnc2ccccc12)N1CCN(c2ccc(C(F)(F)F)cn2)CC1 (stereo not given)	Nuclear receptor coactivator 1 (Homo sapiens) (UniProt Q15788)	condition not met

Note: attention shifts to another entry.
## Task Reported inhibition reaches at least 60% for `COc1ccccc1C(=O)Nc1nc2ccccc2s1` ?
## Result condition not met
